As shown below, each of these compounds has a reported melting point value.

Observe how each entry below is paired with its result.
Form field: reported melting point of O=c1ccn(-c2ccccc2N2CCOCC2)nc1-c1ccnn1-c1ccccc1 [Example 29] 200 to 201 °C

Which measured melting point value corresponds to Cc1ccc(-n2nccc2-c2nn(-c3cccc(C(F)(F)F)c3)ccc2=O)cc1 [Example 1] ? 164 to 165 °C

Using the record for O=c1ccn(-c2cccc(C(F)(F)F)c2)nc1-c1ccnn1-c1ccccc1 [Example 10] , report its melting point. 156 to 157 °C

May I ask what melting point has been recorded for O=c1ccn(-c2cccc(C(F)(F)F)c2)nc1-c1ccoc1-c1ccccc1 [Example 85] ? 159 to 163 °C

Returns the measured melting point for the input compound. Input: COc1cccc(-n2ccc(=O)c(-c3ccnn3-c3ccccc3)n2)c1 [Example 21] 110 to 111 °C

Name the recorded melting point for Cc1ccccc1-n1ccc(=O)c(-c2ccnn2-c2ccccc2)n1 [Example 19] . 120 to 121 °C

State the recorded melting point for this entry: O=c1ccn(-c2ccccc2F)nc1-c1ccnn1-c1ccccc1 [Example 16] 124 to 125 °C

For COc1cc(=O)c(-c2ccnn2-c2ccccc2)nn1-c1cccc(C(F)(F)F)c1 [Example 193] , what is its reported melting point? 139 to 141 °C

Below: the item to evaluate.
Quick check: melting point of O=c1ccn(-c2cccc(C(F)(F)F)c2)nc1-c1ccnn1-c1ccccc1Cl [Example 8] ? 139 to 140 °C

###

The following compounds are listed with their measured melting point values.

Give its melting point value. Item: O=c1ccn(-c2cccc3c2OC(F)(F)O3)nc1-c1ccnn1-c1ccccc1 105 to 107 °C

# input compound: COc1cn(-c2ccc(C(F)(F)F)cc2F)nc(-c2ccnn2-c2ccccc2)c1=O ; wanted: its melting point 169 to 171 °C

Request the reported melting point associated with COc1cn(-c2cccc(C(F)(F)F)c2)nc(-c2ccnn2-c2ccccc2)c1=O 139 to 141 °C

# ---- query compound ----
Can you share its melting point? I mean this compound: COc1cn(-c2cccc(C(F)(F)F)c2)nc(-n2ccnc2-c2ccccc2)c1=O 167 to 170 °C

###

melting point values, listed per item

Need melting point, item O=c1c(OC(F)F)cn(-c2ccccc2F)nc1-c1ccnn1-c1ccccc1 109 to 114 °C

For the molecule O=c1ccn(-c2cccc(OC(F)F)c2)nc1-c1ccnn1-c1ccccc1 , what melting point is on record? 159 to 160 °C

Tell me the measured melting point of O=c1ccn(-c2cccc(C(F)(F)F)c2)nc1-c1ccnn1CC1CC1 , please. 155 to 157 °C

Others:
Need melting point, item O=c1ccn(-c2cccc(C(F)(F)F)c2)nc1-c1ccsc1-c1ccccc1 167 to 168 °C

melting point lookup needed for COc1cn(-c2ccc(O)cc2F)nc(-c2ccnn2-c2ccccc2)c1=O , thanks. 223 to 224 °C

Could you share which melting point value was measured for COc1cn(-c2ccc(-c3c(C)noc3C)cc2F)nc(-c2ccnn2-c2ccccc2)c1=O ? 200 to 202 °C

Suppose we examine the molecule COc1ccc(Cn2nccc2-c2nn(-c3cccc(C(F)(F)F)c3)ccc2=O)cc1 ; what melting point value has been reported? 159 to 161 °C

Can you share its melting point? I mean this molecule: O=c1ccn(-c2ccccc2C(F)(F)F)nc1-c1ccnn1-c1ccccc1 145 to 146 °C

Look up melting point for this molecule: O=c1ccn(-c2cccnc2)nc1-c1ccnn1-c1ccccc1 176 to 177 °C
